system name: T1, recombinant human EGFR extracellular domain with 6xHis (human, UniProt P00533 25-645)
T1 construct: In-house produced; also called 6xHis EGFR ECD; soluble human EGFR ECD; not shown: 6xHis tag
test name: SPR competition, competitor 1257
List of % inhibition values.
Kindly provide the numeric value in % only, without the unit symbol.

Look over these answered cases.
{"columns": ["binder", "experimental endpoint", "quantitative readout"],
 "data": [
  ["antibody 1344 (antibody, human IgG1, kappa, V domains shown, Chimeric IgG1 kappa) VH: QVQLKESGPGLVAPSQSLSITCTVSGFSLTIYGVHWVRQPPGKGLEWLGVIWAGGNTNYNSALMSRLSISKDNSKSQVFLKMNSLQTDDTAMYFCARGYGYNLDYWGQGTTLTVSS VL: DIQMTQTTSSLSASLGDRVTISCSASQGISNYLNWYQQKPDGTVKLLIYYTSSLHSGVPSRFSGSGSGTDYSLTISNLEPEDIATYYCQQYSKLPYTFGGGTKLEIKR", "% inhibition", 83],
  ["antibody 992 (antibody, human IgG1, kappa, V domains shown, Chimeric mouse/human IgG1 kappa; the VL entry includes the human kappa constant region) VH: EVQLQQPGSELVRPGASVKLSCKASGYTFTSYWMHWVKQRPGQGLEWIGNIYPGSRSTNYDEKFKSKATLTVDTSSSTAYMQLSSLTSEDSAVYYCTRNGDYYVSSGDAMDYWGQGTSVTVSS VL: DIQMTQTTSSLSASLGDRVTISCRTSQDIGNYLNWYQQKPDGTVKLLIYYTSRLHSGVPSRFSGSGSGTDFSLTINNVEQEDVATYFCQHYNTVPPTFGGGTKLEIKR", "% inhibition", 16]
]}

Please find the next binder below.
Task item: Annotate the binder antibody 1308 (antibody, human IgG1, kappa, V domains shown, Chimeric IgG1 kappa) VH: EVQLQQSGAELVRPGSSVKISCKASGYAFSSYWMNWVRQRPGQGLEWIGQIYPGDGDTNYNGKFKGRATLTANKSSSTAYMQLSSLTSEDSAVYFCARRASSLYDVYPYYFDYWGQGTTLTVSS VL: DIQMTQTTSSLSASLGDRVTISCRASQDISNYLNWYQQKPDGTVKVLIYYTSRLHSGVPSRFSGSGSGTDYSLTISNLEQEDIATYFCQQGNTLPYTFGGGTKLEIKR with its measured % inhibition.
Reply: 27
